- system: SIRT1 (Homo sapiens, UniProt Q96EB6)
- testSummary: SIRT1 mass spectrometry (MS) based deacetylation assay
- Format: biochemical
- cond: SIRT1 activation, mass spectrometry assay; read-out: ED50 MS ASSAY
observationType: EC50

Supply reported EC50 belonging to this molecule: O=C(Nc1ccc(-c2nc3ncccc3o2)cc1)c1ccccc1 [Compound 37]
> 150 µM

Name the recorded EC50 of the item COc1cc(C(=O)Nc2ccccc2-c2cn3ccccc3n2)cc(OC)c1OC [Compound 267] in your answer.
< 5 µM

Give the measured EC50 for COc1ccc(C(=O)Nc2cccc(-c3nc4ncccc4o3)n2)c(OC)c1 [Compound 69]
5 to 50 µM

Return EC50 (reported value) for this molecule: COc1cc(C(=O)Nc2ccc(-c3nc4ccccc4[nH]3)cc2)cc(OC)c1OC [Compound 263]
5 to 50 µM

Look up and state reported EC50 for COc1ccc(C(=O)Nc2cccc(-c3nc4ncccc4s3)c2)cc1OC [Compound 201]
5 to 50 µM

Look up and state reported EC50 for COc1cc(OC)cc(C(=O)Nc2cccc(-c3nc4ccncc4o3)c2)c1 [Compound 451]
5 to 50 µM

Please indicate EC50 recorded for COc1cc(C(=O)Nc2ccccc2-c2nc3ccncc3s2)ccc1CN1CCCC1 [Compound 436]
5 to 50 µM

Return reported EC50. Input molecule: O=C(Nc1ccc(-c2nc3ncccc3o2)cc1)c1ccc(N2CCCCC2)cc1 [Compound 21]
> 150 µM

Report EC50, nothing else, for this molecule: COc1ccc(C(=O)Nc2cccc(-c3nc4cccnc4o3)c2)cc1OC [Compound 112]
5 to 50 µM

====

- system: SIRT1 (Homo sapiens, UniProt Q96EB6)
- Sequence (Q96EB6 1-747): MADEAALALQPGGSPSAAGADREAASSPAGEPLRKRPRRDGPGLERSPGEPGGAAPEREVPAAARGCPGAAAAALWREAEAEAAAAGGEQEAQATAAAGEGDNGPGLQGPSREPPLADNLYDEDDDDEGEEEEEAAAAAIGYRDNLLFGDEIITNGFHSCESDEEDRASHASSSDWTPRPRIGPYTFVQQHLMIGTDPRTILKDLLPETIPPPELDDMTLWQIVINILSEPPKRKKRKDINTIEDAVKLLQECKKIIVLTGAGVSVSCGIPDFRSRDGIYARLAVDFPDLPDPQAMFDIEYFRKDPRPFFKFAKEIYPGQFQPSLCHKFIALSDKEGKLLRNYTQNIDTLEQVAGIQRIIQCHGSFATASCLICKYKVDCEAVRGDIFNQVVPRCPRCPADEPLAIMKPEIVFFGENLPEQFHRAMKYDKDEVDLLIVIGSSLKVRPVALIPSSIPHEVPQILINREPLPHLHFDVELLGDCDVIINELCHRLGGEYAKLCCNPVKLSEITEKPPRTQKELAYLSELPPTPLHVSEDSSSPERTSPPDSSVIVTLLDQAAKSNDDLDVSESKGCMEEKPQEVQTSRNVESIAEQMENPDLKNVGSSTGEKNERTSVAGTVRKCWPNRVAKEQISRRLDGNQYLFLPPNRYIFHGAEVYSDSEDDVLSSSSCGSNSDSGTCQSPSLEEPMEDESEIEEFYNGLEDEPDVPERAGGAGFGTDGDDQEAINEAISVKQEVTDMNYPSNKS
- testSummary: SIRT1 mass spectrometry (MS) based deacetylation assay
- Type: biochemical
- cond: Sirt1 Inhibitors; mass spectrometry assay
observationType: IC50

Provide one value: measured IC50 of COc1ccc(C)cc1S(=O)(=O)Nc1cc(-c2nc3ncccc3o2)ccn1 [Compound 653]
101 to 150 µM

Identify measured IC50 corresponding to O=S(=O)(Nc1cc(-c2nc3ncccc3o2)ccn1)c1ccc(Cl)cc1 [Compound 652]
51 to 100 µM

// Input: O=S(=O)(Nc1cccc(-c2nc3ccncc3s2)c1)c1ccc(S(=O)(=O)c2ccccc2)s1 [Compound 654] . Output its IC50 only.
> 150 µM

====

Give EC50 for every item shown.
- system: SIRT1 (Homo sapiens, UniProt Q96EB6)
- testSummary: SIRT1 mass spectrometry (MS) based deacetylation assay
- Assay type: biochemical
- cond: Sirt1 activators; mass spectrometry assay; read-out: ED50 MS ASSAY

Name the recorded EC50 of O=C(Nc1ccccc1-c1cn2c(CN3CCNCC3)csc2n1)c1cnc2ccccc2c1 [Compound 645] , assay system SIRT1 (Homo sapiens, UniProt Q96EB6).
< 5 µM

Give measured EC50 for COc1cc(C(=O)Nc2ccccc2-c2nc3cccnc3[nH]2)cc(OC)c1OC [Compound 522] (SIRT1 (Homo sapiens, UniProt Q96EB6)).
5 to 50 µM

Report value: EC50, system: SIRT1 (Homo sapiens, UniProt Q96EB6), molecule: Cc1cc(C)cc(C(=O)Nc2ccccc2-c2nc3ncccc3o2)c1 [Compound 482]
< 5 µM

Report EC50 on SIRT1 (Homo sapiens, UniProt Q96EB6) for this entry: COc1cc(NC(=S)Nc2cc(-c3nc4ncccc4o3)ccn2)cc(OC)c1 [Compound 661]
< 5 µM

Identify measured EC50 obtained with SIRT1 (Homo sapiens, UniProt Q96EB6) for COc1cc(C(=O)Nc2ccccc2-c2nc3ccccc3[nH]2)ccc1CN1CCCC1 [Compound 587] .
< 5 µM

With SIRT1 (Homo sapiens, UniProt Q96EB6) as the test system, provide measured EC50 for this molecule: Cc1ccc(C(=O)Nc2ccccc2-c2nc3cc(CN4CCNCC4)cnc3s2)cc1C [Compound 591]
< 5 µM

# return EC50 of N=C(Nc1ccc(Cl)cc1)Nc1cc(-c2nc3ncccc3o2)ccn1 [Compound 634] (system: SIRT1 (Homo sapiens, UniProt Q96EB6))
> 150 µM

Provide EC50, recorded with SIRT1 (Homo sapiens, UniProt Q96EB6), of S=C(Nc1ccc(N2CCOCC2)nc1)Nc1cccc(-c2nc3ccncc3s2)c1 [Compound 484]
5 to 50 µM

====

For each of the compounds below, state its EC50.
- system: SIRT1 (Homo sapiens, UniProt Q96EB6)
- testSummary: SIRT1 mass spectrometry (MS) based deacetylation assay
- Format: biochemical
- cond: Sirt1 activators; mass spectrometry assay; read-out: ED50 MS ASSAY

Supply EC50 value. Item: `O=C(Nc1ccccc1-c1cn2c(CN3CCNCC3)csc2n1)c1cnccn1`
< 5 µM

Return EC50 (reported value) for this compound: `O=C(Nc1ccccc1-c1cn2c(CN3CCNCC3)csc2n1)c1cc2ccccc2o1`
< 5 µM

Give the reported value of EC50 for this record: CC(Oc1ccccc1)C(=O)Nc1ccccc1-c1nc2ccncc2s1 (centres unmarked)
5 to 50 µM

Let me know recorded EC50 for `COc1cc(C(=O)Nc2ccccc2-c2nc3ncccc3o2)ccc1CN1CCN(C)CC1` , thanks.
5 to 50 µM

Given the compound `O=C(Nc1ccccc1-c1nc2ccccc2[nH]1)c1ccc2ccccc2n1` , write its reported EC50.
< 5 µM

Look up and report measured EC50 for this entry: `COc1cc(C(=O)Nc2ccccc2-c2cn3ccccc3n2)ccc1CN1CCOCC1`
5 to 50 µM

Entry `N#Cc1cccc(C(=O)Nc2ccccc2-c2nc3cc(CN4CCNCC4)cnc3s2)c1` needs its EC50 filled in; supply it.
< 5 µM

Note down EC50 recorded for `O=C(Nc1ccccc1-c1nc2ccncc2s1)c1cc(C(F)(F)F)ccc1C(F)(F)F`
< 5 µM

====

Please provide measured pEC50 for the entries that follow.
- system: SIRT1 (Homo sapiens, UniProt Q96EB6)
- Sequence (Q96EB6 1-747): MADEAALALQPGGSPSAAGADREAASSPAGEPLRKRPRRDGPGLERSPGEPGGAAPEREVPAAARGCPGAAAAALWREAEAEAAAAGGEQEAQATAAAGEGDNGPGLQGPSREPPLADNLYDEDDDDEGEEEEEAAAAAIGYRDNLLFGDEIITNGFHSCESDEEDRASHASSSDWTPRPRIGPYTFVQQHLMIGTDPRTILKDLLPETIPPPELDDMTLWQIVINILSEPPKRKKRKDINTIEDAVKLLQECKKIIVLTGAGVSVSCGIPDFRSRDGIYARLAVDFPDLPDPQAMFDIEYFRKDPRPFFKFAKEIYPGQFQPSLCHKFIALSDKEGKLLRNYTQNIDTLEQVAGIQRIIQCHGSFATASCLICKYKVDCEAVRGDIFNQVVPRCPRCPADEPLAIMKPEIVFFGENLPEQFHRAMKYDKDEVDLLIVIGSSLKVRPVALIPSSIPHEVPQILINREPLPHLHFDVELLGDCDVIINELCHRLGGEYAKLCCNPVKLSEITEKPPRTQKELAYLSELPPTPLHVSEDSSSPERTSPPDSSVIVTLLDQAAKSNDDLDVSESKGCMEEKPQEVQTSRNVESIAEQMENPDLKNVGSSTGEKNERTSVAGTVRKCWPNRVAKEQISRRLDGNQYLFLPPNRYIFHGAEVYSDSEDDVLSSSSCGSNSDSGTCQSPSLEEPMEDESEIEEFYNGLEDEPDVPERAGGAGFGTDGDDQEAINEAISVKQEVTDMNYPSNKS
- testSummary: SIRT1 fluorescence polarization (FP) deacetylation assay with p53-based peptide substrates
- Assay type: biochemical
- cond: SIRT1 activation, read-out: ED50 FP ASSAY
pEC50: −log10 of the molar value.

Given the molecule `COc1ccc(C(=O)Nc2ccc(-c3nc4ncccc4o3)cc2)cc1C(F)(F)F` , write its reported pEC50.
< 3.82

For the molecule `COc1cccc(OC)c1C(=O)Nc1ccc(-c2nc3ncccc3o2)cc1` , give its measured pEC50 value.
< 3.82

Supply measured pEC50 of `O=C(Nc1ccc(-c2nc3ncccc3o2)cc1)c1ccc(N2CCCCC2)cc1` in your reply.
< 3.82

Item `COc1ccc(C(=O)Nc2ccc(-c3nc4ncccc4o3)cc2)c(OC)c1` : provide pEC50
< 3.82

Determine from records and report pEC50 for `COc1cc(C)ccc1C(=O)Nc1cccc(-c2nc3ncccc3o2)c1`
4.30 to 5.30

Supply reported pEC50 belonging to this molecule: `COc1cccc(C(=O)Nc2ccc(-c3nc4ncccc4o3)cc2)c1C`
< 3.82

Specify pEC50 for `O=C(Nc1ccc(-c2nc3ncccc3o2)cc1)c1ccccc1` and stop.
< 3.82

Output measured pEC50 for this item: `CN(C)c1ccc(C(=O)Nc2cccc(-c3nc4ncccc4o3)c2)cc1`
4.30 to 5.30

Specify measured pEC50 for `COc1ccc(C(=O)Nc2ccc(-c3nc4ncccc4o3)cc2)c(OC)c1OC` .
< 3.82

Determine from records and report pEC50 for `O=C(Nc1ccc(-c2nc3ncccc3o2)cc1)c1ccc(N2CCOCC2)cc1`
< 3.82

From: patent US8044198B2
